Molecular target: T1, Human ACVR2A (human, UniProt P27037 20-135, limits assumed); also: test concentration or dose not given here
T1 construct: also called activin receptor, type II A
T1 sequence (P27037 20-135 limits assumed): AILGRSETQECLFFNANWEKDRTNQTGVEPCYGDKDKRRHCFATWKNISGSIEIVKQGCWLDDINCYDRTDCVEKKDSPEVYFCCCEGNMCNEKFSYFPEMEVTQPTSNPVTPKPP
Test: ELISA
property: optical density (OD)
Please give a number only; it is taken to be in OD.

Examples from the recorded data:
INSERT INTO results (binder, property, unit_abbreviation, result_number) VALUES
  ('365_C02 (antibody, V domains shown, VH/VL only) VH: EVQLLESGGGLVQPGGSLRLSCAASGFTFDSYSMNWVRQAPGKGLEWVSNINYNGGYKGYADSVKGRFTISRDNSKNTLYLQMNSLRAEDTAVYYCARGATWHDTHLDYWGQGTLVTVSS VL: DIQMTQSPSSLSASVGDRVTITCRASQSISTYLNWYQQKPGKAPKLVIYAATSRHSGVPSRFSGSGSGTDFTLTISSLQPEDFATYYCQQSYENPLTFGGGTKVEIK', 'optical density', 'OD', 2.15),
  ('370_C10 (antibody, V domains shown, VH/VL only) VH: EVQLLESGGGLVQPGGSLRLSCAASGFTFDSYSMNWVRQAPGKGLEWVSNINYNSGYKGYADSVKGRFTISRDNSKNTLYLQMNSLRAEDTAVYYCARGATWHDTHLDYWGQGTLVTVSS VL: DIQMTQSPSSLSASVGDRVTITCRASQSIVSYVNWYQQKPGKAPKLLIYATTSRASGVPSRFSGSGSGTDFTLTISSLQPEDFATYYCQQSYSSPLTFGGGTKVEIK', 'optical density', 'OD', 1.3);

Kindly review the next binder as well.
Per the record, 365_H02 (antibody, V domains shown, VH/VL only) VH: EVQLLESGGGLVQPGGSLRLSCAASGFTFSDYGMNWVRQAPGKGLEWVSSINYNGGYTGYADSVKGRFTISRDNSKNTLYLQMNSLRAEDTAVYYCARSANWHDTHLDYWGQGTLVTVSS VL: DIQMTQSPSSLSASVGDRVTITCRASQSILTYLNWYQQKPGKAPKLLIYAATSRASGVPSRFSGSGSGTDFTLTISSLQPEDFATYYCQQSYENPLTFGGGTKVEIK has optical density of 2.73
